- method notes: qHTS assay for cell viability of the p53RE-bla HCT-116 cell line (AID 743292); also: nearly all actives have a fitted effect of over 55% in size
- condition info: p53RE-bla HCT-116 viability, ATP luminescence, 16 h; series mostly up to 95 µM
Results filed as inconclusive are left out. Activity calls are given as the source filed them. Calls follow the shape of the dose curve; as a rule, active = well fitted cell-killing curve with a large enough effect; inconclusive = small, poorly fitted or top-dose-only effect, or effect the other way; inactive = flat fitted curve, though single readings scatter.
Mark one answer only. Choices: active, inactive

Illustrative cases are given below, each with its answer.
[
  {
    "molecule": "O=S1OC[C@@H]2[C@H](CO1)[C@@]1(Cl)C(Cl)=C(Cl)[C@]2(Cl)C1(Cl)Cl (stereo partly specified)",
    "label class": "inactive"
  },
  {
    "molecule": "Nc1ccc([N+](=O)[O-])cc1Cl",
    "label class": "inactive"
  },
  {
    "molecule": "FC(F)(F)c1ccc(Cl)cc1",
    "label class": "inactive"
  }
]

Problem: Outcome? COc1ccc(O)c(C(C)(C)C)c1
Solution: inactive

Problem: Test call, this molecule: OC(Cn1cncn1)(c1ccc(F)cc1)c1ccccc1F (stereo unspecified)
Solution: inactive

Problem: // return assay outcome for CC1(C)[C@H](C(=O)O[C@H](C#N)c2cccc(Oc3ccccc3)c2)[C@@H]1/C=C(\Cl)C(F)(F)F
Solution: inactive

Problem: Lab log entry: OC(c1ccc(Cl)cc1)(c1cncnc1)c1ccccc1Cl (stereo unspecified) — outcome as called in the assay?
Solution: inactive

Problem: Assay outcome for CCOP(=S)(NC(C)C)Oc1ccccc1C(=O)OC(C)C (stereo unspecified) : what was it?
Solution: inactive

Problem: Hello, I am checking results. What call was entered for CNC(=O)Oc1cc(C)c(SC)c(C)c1 ?
Solution: inactive

Problem: Short answer needed: outcome of this test for CC(C)C(C(=O)OC(C#N)c1cccc(Oc2ccccc2)c1)c1ccc(Cl)cc1 (stereo unspecified) ?
Solution: inactive

Problem: Lab log entry: O=[N+]([O-])C(Br)Br — outcome as called in the assay?
Solution: inactive

Problem: Entry COCC(=O)N(c1c(C)cccc1C)[C@H](C)C(=O)OC : call = ?
Solution: inactive

Problem: Field: outcome | Entry: Oc1ccc(C2(c3ccc(O)cc3)c3ccccc3-c3ccccc32)cc1
Solution: active

Problem: Please let me know the test result on file for Cc1c(F)c(F)c(COC(=O)C2C(/C=C(\Cl)C(F)(F)F)C2(C)C)c(F)c1F (stereo unspecified) .
Solution: inactive
